STUDY_TARGET: cynomolgus monkey (cyno) TIGIT protein (cynomolgus monkey, UniProt A0A7N9I9V4 89-209)
Sequence (A0A7N9I9V4 entry or part of it): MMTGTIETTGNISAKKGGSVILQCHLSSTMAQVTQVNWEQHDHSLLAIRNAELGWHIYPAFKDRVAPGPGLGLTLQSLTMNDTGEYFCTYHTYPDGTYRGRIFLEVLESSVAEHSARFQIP
ASSAY_PROCEDURE: SPR, captured mAb
QUANTITY_NAME: koff (s⁻¹)
// return numeric value only (unit: s⁻¹, not printed)

A selection of reference data follows.
{"BINDER": "h15C8.L1H2 (antibody, V domains shown, VH: L37V against h15C8.L1H1; FR/HVR pieces) VH: EVQLVQSGAEVKKPGASVKVSCKASGYTFTEHSIYWVRQAPGQRLEIIGRIDPKNGRTYFVDKFKNRATLTTDTSASTAYMELSSLRSEDTAVYFCARIDGFYFDFWGQGTLVTVSS VL: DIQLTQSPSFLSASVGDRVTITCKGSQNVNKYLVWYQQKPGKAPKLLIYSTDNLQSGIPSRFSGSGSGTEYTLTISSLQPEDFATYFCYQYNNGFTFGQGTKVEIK", "UNITS": "s⁻¹", "koff": 0.000806}
{"BINDER": "rat7E7 (antibody, V domains shown, SD rat-derived; rat V domains as FR/HVR pieces; also called 1.7E7; Chimeric 1.7E7) VH: EVQLQQSGPELQRPGASVKLSCKATGYTFTEYSIYWVKQRPKQSLEIIGRIDPKNGRTYYVDKFKNRATLTADTSSNTAYMQLSSLTSEDTATYFCTRIYGFYFDFWGQGVMVTASS VL: NIHLTQSPSLLSASVGDRVTLSCKGSQNVNKYLVWYQQKLGEAPKLLIYNTDNLQSGIPSRFSGSGSGTDYTLTISSLQPEDAATYFCYQYNNGFTFGSGTKLEIK", "UNITS": "s⁻¹", "koff": "2.7e-05"}

binder h7E7.L2H1 (antibody, V domains shown, VL: I58V against h7E7.L1H1; FR/HVR pieces) VH: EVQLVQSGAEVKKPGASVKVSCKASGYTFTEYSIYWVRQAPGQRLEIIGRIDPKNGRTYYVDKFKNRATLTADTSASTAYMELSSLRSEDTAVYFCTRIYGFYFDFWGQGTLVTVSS VL: DIQLTQSPSFLSASVGDRVTITCKGSQNVNKYLVWYQQKPGKAPKLLIYNTDNLQSGVPSRFSGSGSGTEYTLTISSLQPEDFATYFCYQYNNGFTFGQGTKVEIK , koff observed: 0.000179

Just for reference, patent US20220064286A1 is where these values come from.
